Cited source for all entries: patent US20040127492A1

- study.system: MAPKAPK2 (MK-2) (Homo sapiens, UniProt P49137)
- Sequence (P49137 whole entry, species assumed): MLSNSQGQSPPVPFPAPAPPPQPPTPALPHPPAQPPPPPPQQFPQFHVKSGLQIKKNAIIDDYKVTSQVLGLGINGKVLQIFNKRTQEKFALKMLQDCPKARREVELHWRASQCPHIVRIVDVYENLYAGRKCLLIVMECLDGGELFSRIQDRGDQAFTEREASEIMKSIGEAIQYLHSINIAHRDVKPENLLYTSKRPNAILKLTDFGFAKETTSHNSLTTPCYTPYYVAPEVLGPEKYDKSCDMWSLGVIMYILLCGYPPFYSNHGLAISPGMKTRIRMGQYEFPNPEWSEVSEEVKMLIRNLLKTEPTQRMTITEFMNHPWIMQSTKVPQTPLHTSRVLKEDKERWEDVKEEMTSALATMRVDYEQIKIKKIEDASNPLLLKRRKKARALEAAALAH
- method.notes: Determination of MK-2 IC50 (HSP-peptide phosphorylation, anion exchange resin capture assay)
- Assay type: biochemical
- run.parameters: Table 1, phenoxypyrazole MK-2 inhibitors; read-out: MK-2 Avg, IC50
pIC50: −log10 of the molar value.
readout.label: pIC50

Solved entries (count: 3):
COc1cc2c(cc1-c1cccc(S(C)(=O)=O)c1)-c1nn(CCCNC(=O)OC(C)(C)C)c(C(=O)O)c1CC2 [Example 57] : 3.84
C=CCC1Cc2c(C(N)=O)n[nH]c2-c2ccc(O)cc21 (stereo not drawn) [Example 56] : 3.86
O=C(NCCO)c1[nH]nc2c1CCc1cc(O)ccc1-2 [Example 73] : 3.74

I: NC(=O)c1[nH]nc2c1CCc1cc(O)ccc1-2 [Example 33]
II: Cc1noc(C)c1-c1cc2c(cc1O)CCc1c-2nn(CCCN)c1C(=O)O [Example 55]
III: CC(C)(CCc1cc2c(cc1O)CCc1c-2nn(CCCN)c1C(=O)O)CC(=O)O [Example 26]
Problem: Put the entries in order of pIC50, starting with the largest number. A complete answer lists every label in the requested sequence.
Solution: III, I, II
